System Under Test: T1, human TIGIT-Fc (human, UniProt Q495A1 22-141, limits assumed)
T1 construct: not shown: Fc; not described
T1 sequence (looked up): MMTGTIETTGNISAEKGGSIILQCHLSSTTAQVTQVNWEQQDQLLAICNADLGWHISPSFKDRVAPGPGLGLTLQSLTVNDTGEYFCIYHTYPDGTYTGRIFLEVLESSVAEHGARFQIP
Assay Details: CD155 competition ELISA, single point; further: test concentration or dose not given here
Observed Property: OD (450 nm)
I'd appreciate it if you included the unit after the number.

TIGIT-SC138 (Fc fusion, VHH-Fc) VHH: EVQLVESGGGLVQPGGSLRLSCAASGFTLENNMMGWFRQAPGKGREFVAAISRSGTLKAYADSVKGRFTISADNSKNTAYLQMNSLKPEDTAVYYCARVRYYYDSSGYFFWFDLWGQGTLVTVSS; 0.393 OD
TIGIT-SC99 (Fc fusion, VHH-Fc) VHH: EVQLVESGGGLVQPGGSLRLSCAASGSIFSMNTMGWFRQAPGKEREFVGAINWSGGSTIYADSVKGRFTISADNSKNTAYLQMNSLKPEDTAVYYCARWDYDILTNYYWLEYWGQGTLVTVSS; 0.635 OD

Could you report OD (450 nm) for every entry in the following list?
1. TIGIT-SC87 (Fc fusion, VHH-Fc) VHH: EVQLVESGGGLVQPGGSLRLSCAASGSIDTINTMGWFRQAPGKEREFVAAITPSSRTTYYVDSVKGRFTISADNSKNTAYLQMNSLKPEDTAVYYCARWGGVTFGGVYPLEYWGQGTLVTVSS
2. TIGIT-SC48 (Fc fusion, VHH-Fc) VHH: EVQLVESGGGLVQPGGSLRLSCAASGRTSDIYGMGWFRQAPGKEREAVASIWRSGGNTYYADSVKGRFTISADNSKNTAYLQMNSLKPEDTAVYYCASSTLDVWGQGTLVTVSS
3. TIGIT-SC151 (Fc fusion, VHH-Fc) VHH: EVQLVESGGGLVQPGGSLRLSCAASGFPFSIYPMGWFRQAPGKEREFVAAISASGTLRAYADSVKGRFTISADNSKNTAYLQMNSLKPEDTAVYYCARSSSWVRIFDYWGQGTLVTVSS
4. TIGIT-SC206 (Fc fusion, VHH-Fc) VHH: EVQLVESGGGLVQPGGSLRLSCAASGFLFDSYVMGWFRQAPGKEREFVAAIWRSGTLKAYADSVKGRFTISADNSKNTAYLQMNGLKPEDTAVYYCAGVGTDYGDYLFNYWGQGTLVTVSS
5. TIGIT-SC209 (Fc fusion, VHH-Fc) VHH: EVQLVESGGGLVQPGGSLRLSCAASGFLFNSYWMGWFRQAPGKEREFVAAIWRSGTLKAYADSVKGRFTISADNSKNTEYLQMNSLKPEDTAVYYCARDDYGDYRIYFQHWGQGTLVTVSS

["0.438 OD", "0.381 OD", "0.206 OD", "0.517 OD", "0.56 OD"]

# get_value(readout='OD (450 nm)', item= TIGIT-SC161 (Fc fusion, VHH-Fc) VHH: EVQLVESGGGLVQPGGSLRLSCAASGFTFSPSWMGWFRQAPGKEREWVASVLRGGYTWYADSVKGRFTISADNSKNTAYLQMNSLKPEDTAVYYCTTDRAIGVRPLFDHWGQGTLVTVSS )
0.451 OD
